Target: T1, Factor VIIIa (FVIIIa), from recombinant FVIII (Kogenate FS; Bayer healthcare) activated with alpha-thrombin (UniProt P00451 20-2351)
T1 sequence (looked up): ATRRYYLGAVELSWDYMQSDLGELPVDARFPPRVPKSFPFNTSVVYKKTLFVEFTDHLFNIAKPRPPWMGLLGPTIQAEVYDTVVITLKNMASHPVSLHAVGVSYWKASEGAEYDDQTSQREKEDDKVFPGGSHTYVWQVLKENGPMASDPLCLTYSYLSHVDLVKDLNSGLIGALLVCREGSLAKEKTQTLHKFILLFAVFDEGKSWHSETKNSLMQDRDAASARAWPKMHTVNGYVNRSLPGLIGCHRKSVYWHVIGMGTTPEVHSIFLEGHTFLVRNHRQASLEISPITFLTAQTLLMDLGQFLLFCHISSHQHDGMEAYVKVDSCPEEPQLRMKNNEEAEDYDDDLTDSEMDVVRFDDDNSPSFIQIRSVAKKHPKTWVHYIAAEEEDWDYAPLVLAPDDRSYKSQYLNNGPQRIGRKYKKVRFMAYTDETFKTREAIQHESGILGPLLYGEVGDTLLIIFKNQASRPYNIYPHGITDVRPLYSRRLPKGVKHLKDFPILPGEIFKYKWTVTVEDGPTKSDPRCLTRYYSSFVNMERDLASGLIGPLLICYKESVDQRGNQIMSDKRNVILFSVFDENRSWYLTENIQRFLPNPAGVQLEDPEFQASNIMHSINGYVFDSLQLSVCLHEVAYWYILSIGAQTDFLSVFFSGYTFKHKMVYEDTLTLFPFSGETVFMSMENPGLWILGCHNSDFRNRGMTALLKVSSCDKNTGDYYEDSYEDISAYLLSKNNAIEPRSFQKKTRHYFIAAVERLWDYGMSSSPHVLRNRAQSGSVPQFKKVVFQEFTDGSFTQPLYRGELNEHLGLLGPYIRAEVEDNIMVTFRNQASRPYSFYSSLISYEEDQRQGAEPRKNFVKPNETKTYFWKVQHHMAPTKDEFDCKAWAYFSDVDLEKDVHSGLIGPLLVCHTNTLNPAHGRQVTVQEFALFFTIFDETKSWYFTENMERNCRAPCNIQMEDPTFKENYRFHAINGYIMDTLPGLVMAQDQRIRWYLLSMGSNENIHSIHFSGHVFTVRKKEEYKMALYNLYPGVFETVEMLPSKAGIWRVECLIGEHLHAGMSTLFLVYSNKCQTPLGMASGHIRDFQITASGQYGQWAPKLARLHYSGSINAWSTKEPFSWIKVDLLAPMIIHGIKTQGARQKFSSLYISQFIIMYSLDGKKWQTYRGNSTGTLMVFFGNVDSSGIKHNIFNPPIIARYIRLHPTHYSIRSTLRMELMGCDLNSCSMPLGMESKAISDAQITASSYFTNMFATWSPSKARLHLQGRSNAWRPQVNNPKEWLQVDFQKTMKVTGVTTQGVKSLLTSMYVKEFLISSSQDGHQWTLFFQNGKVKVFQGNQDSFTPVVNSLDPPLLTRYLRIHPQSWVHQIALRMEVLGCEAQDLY
Assay: ratio of KD-app of Catalyst Biosciences WT FIXa to KD-app of the variant, same Xase assay
reported-metric: KD-WT/KD-mut (fold)
# unit: fold | format: bare number

Worked set:
FIXa variant R318Y/R338E/N346Y/R403E/E410N (enzyme, also called R150Y/R170E/N178Y/R233E/E240N) light: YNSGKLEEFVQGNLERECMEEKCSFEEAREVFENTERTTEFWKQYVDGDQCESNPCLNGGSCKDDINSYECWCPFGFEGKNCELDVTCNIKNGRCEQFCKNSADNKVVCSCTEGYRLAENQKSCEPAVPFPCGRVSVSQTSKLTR heavy: VVGGEDAKPGQFPWQVVLNGKVDAFCGGSIVNEKWIVTAAHCVETGVKITVVAGEHNIEETEHTEQKRNVIRIIPHHNYNAAINKYNHDIALLELDEPLVLNSYVTPICIADKEYTNIFLKFGSGYVSGWGRVFHKGYSALVLQYLRVPLVDRATCLESTKFTIYYNMFCAGFHEGGRDSCQGDSGGPHVTEVEGTSFLTGIISWGEECAMKGKYGIYTKVSEYVNWIKNKTKLT
2.4
FIXa variant D104N/K106S/I251S/R318Y/R338E/R403E/E410N (enzyme) light: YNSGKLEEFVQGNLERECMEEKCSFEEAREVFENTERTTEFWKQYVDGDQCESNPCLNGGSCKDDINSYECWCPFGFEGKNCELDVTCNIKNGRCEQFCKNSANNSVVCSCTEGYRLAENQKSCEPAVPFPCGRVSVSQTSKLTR heavy: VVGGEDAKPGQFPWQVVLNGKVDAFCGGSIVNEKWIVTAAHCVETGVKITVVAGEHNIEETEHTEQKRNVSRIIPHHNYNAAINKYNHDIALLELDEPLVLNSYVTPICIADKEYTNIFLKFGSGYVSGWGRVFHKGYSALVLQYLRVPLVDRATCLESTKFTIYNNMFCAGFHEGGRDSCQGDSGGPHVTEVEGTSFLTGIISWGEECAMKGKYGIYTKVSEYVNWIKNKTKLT
1.7

Continue with the binder presented below.
Incoming: Query (binder): FIXa variant Y259F/K265T/Y345T (enzyme, also called Y94F/K98T/Y177T) light: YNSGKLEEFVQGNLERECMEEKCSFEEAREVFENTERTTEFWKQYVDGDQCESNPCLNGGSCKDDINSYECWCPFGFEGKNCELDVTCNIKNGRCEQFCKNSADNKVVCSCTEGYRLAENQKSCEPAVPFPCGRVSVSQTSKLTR heavy: VVGGEDAKPGQFPWQVVLNGKVDAFCGGSIVNEKWIVTAAHCVETGVKITVVAGEHNIEETEHTEQKRNVIRIIPHHNFNAAINTYNHDIALLELDEPLVLNSYVTPICIADKEYTNIFLKFGSGYVSGWGRVFHKGRSALVLQYLRVPLVDRATCLRSTKFTITNNMFCAGFHEGGRDSCQGDSGGPHVTEVEGTSFLTGIISWGEECAMKGKYGIYTKVSRYVNWIKEKTKLT ; field requested: KD-WT/KD-mut
Outgoing: 0.8
